# target.system: Recombinant human BRD4 containing dual bromodomains (BRD4-BD12 (1-477)) (Homo sapiens, UniProt O60885)
# Construct: Recombinant human BRD4 containing dual bromodomains (BRD4-BD12 (1-477))
# protocol.summary: BRD4 Alphascreen binding assay
pIC50: −log10 of the molar value.
Provide the recorded pIC50 for the entries that follow.

## Task Look at this compound and give its reported pIC50. Cc1noc(C)c1-c1cnc2c(c1)c(-c1ccc(C(=O)O)cc1OC(F)(F)F)cn2-c1ccnc(C(C)C)c1 [P-0203]
## Result 5.10 to 6.00

## Task Suppose we examine the compound CCOc1cc(C(=O)O)cc(OCC)c1-n1cc(C2CCC(F)(F)CC2)c2ncc(-c3c(C)noc3C)cc21 [P-0271] ; what pIC50 value has been reported?
## Result 3.00 to 5.10

## Task Endpoint output: pIC50 of CCOc1cc(C(=O)O)nc(OCC)c1-c1cn(-c2ccc(F)cc2F)c2ncc(-c3c(C)noc3C)cc12 [P-0329] . Value?
## Result 5.10 to 6.00

## Task // query pIC50 value for entry CCOc1cc(C(=O)O)c(F)c(OCC)c1-c1cn(C2CCOCC2)c2ncc(-c3c(C)noc3C)cc12 [P-0374]
## Result 3.00 to 5.10

## Task What does the record list as pIC50 for COc1ncccc1-n1cc(-c2ccc(C(=O)O)cc2OC(F)(F)F)c2cc(-c3c(C)noc3C)cnc21 [P-0316] ?
## Result 5.10 to 6.00

## Task For the compound shown here, Cc1noc(C)c1-c1cnc2c(c1)c(-c1cc(C(=O)O)ccc1OC(F)(F)F)cn2C(C1CC1)C1CC1 [P-0284] , give the reported pIC50.
## Result 3.00 to 5.10

## Task Would you kindly share the measured pIC50 for Cc1noc(C)c1-c1cnc2c(c1)c(-c1ccc(C(=O)O)cc1)cn2C(c1ccccn1)C1CCC1 (stereo not shown) [P-0008] ?
## Result 3.00 to 5.10
